- System: chronic myeloid leukaemia cell K562
- CONDITION: read-out: IC50 (nM) inhibition of K562 cell growth; CellTiter-Glo; 72 hours
RESULT TYPE: IC50

Given CN[C@@H]1C[C@H]2O[C@@](C)([C@@H]1OC)n1c3ccccc3c3c4c(c5c6ccccc6n2c5c31)C(=O)NC4 [Staurosporine] , state its recorded IC50. 139 nM

====

- TEST TARGET: c-Kit (Homo sapiens (Human), UniProt P10721)
- Sequence (P10721 26-976): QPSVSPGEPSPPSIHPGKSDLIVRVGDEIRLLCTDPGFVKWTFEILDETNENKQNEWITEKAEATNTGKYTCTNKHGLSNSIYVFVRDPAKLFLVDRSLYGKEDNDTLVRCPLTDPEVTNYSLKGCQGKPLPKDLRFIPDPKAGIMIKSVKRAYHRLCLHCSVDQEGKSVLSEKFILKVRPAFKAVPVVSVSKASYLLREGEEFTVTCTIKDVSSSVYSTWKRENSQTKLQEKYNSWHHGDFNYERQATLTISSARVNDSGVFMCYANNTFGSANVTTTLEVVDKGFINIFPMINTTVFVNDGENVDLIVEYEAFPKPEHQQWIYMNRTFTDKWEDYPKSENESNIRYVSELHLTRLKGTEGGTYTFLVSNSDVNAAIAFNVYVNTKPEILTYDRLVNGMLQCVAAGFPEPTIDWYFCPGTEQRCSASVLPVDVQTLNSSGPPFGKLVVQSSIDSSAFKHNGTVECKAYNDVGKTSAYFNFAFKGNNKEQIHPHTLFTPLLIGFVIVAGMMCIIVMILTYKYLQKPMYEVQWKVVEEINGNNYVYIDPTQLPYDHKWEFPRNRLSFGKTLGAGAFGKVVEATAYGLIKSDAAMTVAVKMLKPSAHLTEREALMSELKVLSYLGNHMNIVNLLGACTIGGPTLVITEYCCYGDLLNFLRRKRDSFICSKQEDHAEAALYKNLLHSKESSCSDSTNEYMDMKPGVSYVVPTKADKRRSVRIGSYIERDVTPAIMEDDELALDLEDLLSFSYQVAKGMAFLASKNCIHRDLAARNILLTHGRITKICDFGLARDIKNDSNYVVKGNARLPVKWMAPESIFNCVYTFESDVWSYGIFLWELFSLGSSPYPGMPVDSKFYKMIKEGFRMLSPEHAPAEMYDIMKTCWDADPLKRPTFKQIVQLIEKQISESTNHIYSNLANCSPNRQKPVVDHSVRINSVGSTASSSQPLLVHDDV
- ASSAY NOTES: 33P-ATP kinase assay, c-Kit
- Assay type: biochemical
- CONDITION: 33P-ATP assay; ATP concentration 30 μM; 2 mM MnCl2 in buffer
RESULT TYPE: IC50
In your response, put the unit directly after the numeric value.

Given Cc1ccc(NC(=O)c2ccc3c(c2)CC[C@@H]3N2CCN(C)CC2)cc1Nc1nccc(-c2cccnc2)n1 [EXAMPLE 11] , state its recorded IC50. 132 nM
